- testDetails: Cytotoxicity against human SH-SY5Y cells assessed as reduction in cell viability incubated for 4 hrs by CellTiter-Glo luminescence assay
- Assay type: toxicity, cell-based
quantityKind: IC50 at 4 h (µM)
Use µM as the unit, but write only the number.

## Input Suppose we examine the compound `CN(Cc1ccc(COc2ccc3c(CO)cc(=O)oc3c2)cc1)Cc1cccc(F)c1` ; what IC50 at 4 h value has been reported?
## Output 40

---

- assaySystem: Acetylcholinesterase (Homo sapiens)
- Sequence (P22303 whole entry): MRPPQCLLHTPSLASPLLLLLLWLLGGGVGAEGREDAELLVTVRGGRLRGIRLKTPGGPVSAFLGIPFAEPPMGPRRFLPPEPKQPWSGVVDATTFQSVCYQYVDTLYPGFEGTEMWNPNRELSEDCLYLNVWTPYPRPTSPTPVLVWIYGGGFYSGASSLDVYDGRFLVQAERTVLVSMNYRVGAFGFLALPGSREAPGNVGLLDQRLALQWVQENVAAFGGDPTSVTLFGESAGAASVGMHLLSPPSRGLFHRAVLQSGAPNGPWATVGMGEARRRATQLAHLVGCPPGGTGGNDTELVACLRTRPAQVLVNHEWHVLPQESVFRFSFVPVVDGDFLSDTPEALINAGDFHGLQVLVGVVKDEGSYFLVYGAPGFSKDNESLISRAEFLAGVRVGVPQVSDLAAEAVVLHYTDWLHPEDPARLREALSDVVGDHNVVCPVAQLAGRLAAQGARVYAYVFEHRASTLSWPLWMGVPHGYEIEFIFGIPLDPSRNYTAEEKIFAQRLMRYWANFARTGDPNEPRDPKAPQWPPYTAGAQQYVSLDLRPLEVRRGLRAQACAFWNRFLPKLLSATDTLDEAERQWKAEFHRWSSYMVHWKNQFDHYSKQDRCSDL
quantityKind: IC50 (nM)
Use nM as the unit, but write only the number.

## Input Entry Cc1c(C)c2ccc(OCC3CCCN(Cc4cccc(F)c4)C3)cc2oc1=O (racemic) , system Acetylcholinesterase (Homo sapiens): what IC50 was measured?
## Output 1200

## Input Entry `CN(Cc1ccccc1)Cc1ccc(COc2ccc3c(C(F)F)cc(=O)oc3c2)cc1` , system Acetylcholinesterase (Homo sapiens): what IC50 was measured?
## Output 560

## Input Entry `CCN(CCCOc1ccc2c(C)c(C)c(=O)oc2c1)Cc1cccc(F)c1` , system Acetylcholinesterase (Homo sapiens): what IC50 was measured?
## Output 1200

## Input Entry `Cc1c(C)c2ccc(OCC3CCN(Cc4ccccc4)CC3)cc2oc1=O` , system Acetylcholinesterase (Homo sapiens): what IC50 was measured?
## Output 380

## Input Entry `Cc1c(C)c2ccc(OCCCN(Cc3cccc(F)c3)C(C)C)cc2oc1=O` , system Acetylcholinesterase (Homo sapiens): what IC50 was measured?
## Output 910
